Molecular target: T1, human CD276 protein (human, UniProt Q5ZPR3 29-534)
T1 construct: whole, on cells; for SKOV3 and the other cancer lines the protein is the cells' own; also called B7-H3; B7H3
T1 sequence (looked up): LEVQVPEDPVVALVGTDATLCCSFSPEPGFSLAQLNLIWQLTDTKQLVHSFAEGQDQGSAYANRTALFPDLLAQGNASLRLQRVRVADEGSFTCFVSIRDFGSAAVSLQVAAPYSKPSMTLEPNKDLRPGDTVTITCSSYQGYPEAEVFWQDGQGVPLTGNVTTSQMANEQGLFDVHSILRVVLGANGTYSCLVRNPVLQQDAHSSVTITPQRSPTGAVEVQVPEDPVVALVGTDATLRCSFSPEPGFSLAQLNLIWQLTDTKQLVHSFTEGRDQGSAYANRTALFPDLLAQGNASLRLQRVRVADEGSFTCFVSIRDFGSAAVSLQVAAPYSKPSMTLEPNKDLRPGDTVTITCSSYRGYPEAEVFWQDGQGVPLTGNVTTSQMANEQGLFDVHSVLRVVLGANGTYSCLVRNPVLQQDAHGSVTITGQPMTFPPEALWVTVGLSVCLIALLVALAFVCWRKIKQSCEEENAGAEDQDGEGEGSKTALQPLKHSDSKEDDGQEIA
Assay: FACS on CHO-S-hCD276 cells
Collected FACS MFI values appear next to each entry.
Response field accepts a number only; no unit should be typed.

| binder | endpoint-label | measured |
| --- | --- | --- |
| 7-E1-F8-F6 (antibody, V domains shown, mouse monoclonal antibody (hybridoma)) VH: QVQLQQSGPELVKPGASVQMSCKASGYTFTDYVISWVNQRTGQGLEWIGEIYPRSGNTYYNEKFKGKATLTADKSSNTAYMQLSSLTSEDSAVYFCARFDIAYSFDYWGQGTTLTVSS VL: DVVMTQTPLSLPVSLGDQASISCRSTQSLVHSNGVTYLHWYLQKPGQSPKLLIYKVSNRFSGVPDRFSGSGSGTDFTLKISRVEAEDLGVYFCSQGTHVPWTFGGGTKLEIK | FACS MFI | 6990 |
| 6-D8-E7-A11 (antibody, V domains shown, mouse monoclonal antibody (hybridoma)) VH: QVHLQQPGAELVKPGASVKLSCKASGYTFTNYWMHWVKRRPGQGLEWIGMIHPNSGTTSFNEKFKSKATLTVDKSSSTAYMQLSSLTSEDSAVYYCAGYYGSSFSWFTYWGQGTLVTVSA VL: QAVVTQESALTTSPGGTVILTCRSSTGAVTTSNFANWVQEKPDHLFTGLIGGTSNRAPGVPVRFSGSLIGDKAALTITGAQTEDDAMYFCALWYSTHYVFGGGTKVTVL | FACS MFI | 37900 |

With those in mind, consider the next binder.
What value of measured FACS MFI is listed for 10-B9-D10-A12 (antibody, V domains shown, mouse monoclonal antibody (hybridoma)) VH: EVQLQESGPELVRPGVSVKISCKGSGYTFTDYTMHWVKLSHAKSLEWIGVISTYYGNTNYNQKFKGKATLTVDKSSSTAYMELARLTSEDSAIYYCARASYGSGYGPYYWYFDVWGAGTTVTVSS VL: DIQMTQSPASLFASVGETVTITCRASEKIYSYLAWYFQKQGKSPQFLVYNANALAEGVPSRFSGSGSGTQFSLKINSLQPEDFGTYYCQHHYGTPVTFGAGSKLELK ?
400000
